test: Volume of distribution at steady state in Sprague-Dawley rat at 1 mg/kg, iv; type: ADME, organism-based; parameters: dose 1 mg/kg, route intravenous; conditions: in vivo, read-out: Vdss
READOUT_TYPE: Vd (L/kg)
The reply should be a number in L/kg, with the unit left off.

// Vd lookup, molecule = C[C@@H](O)C[C@H]1OC[C@@H](C2CCCCC2)N(c2cc(C#CC(C)(C)C)sc2C(=O)O)C1=O , result: 3

Quick note, Vd for CC(C)(C)C#Cc1cc(N2C(=O)[C@@H](CCCO)OC[C@H]2C2CCCCC2)c(C(=O)O)s1 (relative stereo) landed at 1.2

Record summary for CC(C)(C)C#Cc1cc(N2C(=O)[C@@H](CCO)OC[C@H]2C2CCCCC2)c(C(=O)O)s1 (relative stereo) : reported Vd = 2.1

====

assay: AUC in Sprague-Dawley rat at 1 mg/kg, iv; type: ADME, organism-based; set-up: dose 1 mg/kg, route intravenous; conditions: plasma
READOUT_TYPE: AUC (µM·h)
Only the number, expressed in µM·h, is required.

AUC reading for CC(C)(C)C#Cc1cc(N2C(=O)[C@@H](CCCO)OC[C@H]2C2CCCCC2)c(C(=O)O)s1 (relative stereo) : 0.984

For reference, reported AUC for C[C@@H](O)C[C@H]1OC[C@@H](C2CCCCC2)N(c2cc(C#CC(C)(C)C)sc2C(=O)O)C1=O stands at 2.76

Input CC(C)(C)C#Cc1cc(N2C(=O)[C@@H](CCO)OC[C@H]2C2CCCCC2)c(C(=O)O)s1 (relative stereo) . Output AUC: 1.42

====

experiment: Half life in Sprague-Dawley rat at 1 mg/kg, iv; type: ADME, organism-based; parameters: dose 1 mg/kg, route intravenous; conditions: in vivo
READOUT_TYPE: half-life (h)
The figure you give is taken to be in h; do not add the unit.

Summary for this compound, CC(C)(C)C#Cc1cc(N2C(=O)[C@@H](CCCO)OC[C@H]2C2CCCCC2)c(C(=O)O)s1 (relative stereo) : half-life is 1.1

half-life for C[C@@H](O)C[C@H]1OC[C@@H](C2CCCCC2)N(c2cc(C#CC(C)(C)C)sc2C(=O)O)C1=O is 5.2

Note to self: half-life recorded for CC(C)(C)C#Cc1cc(N2C(=O)[C@@H](CCO)OC[C@H]2C2CCCCC2)c(C(=O)O)s1 (relative stereo) was 2

====

Kindly state AUC for each of the entries shown.
experiment: AUC in beagle dog at 3 mg/kg, po; type: ADME, organism-based, Canis lupus familiaris; set-up: dose 3 mg/kg, route oral; settings: plasma
Give a bare numeral; the unit µM·h is implied.

In plain terms, CC(C)(C)C#Cc1cc(N2C(=O)[C@@H](CCCO)OC[C@H]2C2CCCCC2)c(C(=O)O)s1 (relative stereo) has a documented AUC of 2.92

So for CC(C)(C)C#Cc1cc(N2C(=O)[C@@H](CCO)OC[C@H]2C2CCCCC2)c(C(=O)O)s1 (relative stereo) , the logged AUC turned out to be 5.68

AUC reading for C[C@@H](O)C[C@H]1OC[C@@H](C2CCCCC2)N(c2cc(C#CC(C)(C)C)sc2C(=O)O)C1=O : 6.3

====

test: Oral bioavailability in Sprague-Dawley rat at 5 mg/kg; format: ADME, organism-based; conditions: in vivo
Task for the reader: assign each of the following compounds its reported bioavailability.
Output spec: scalar in %, unitless text.

bioavailability recorded for this compound, CC(C)(C)C#Cc1cc(N2C(=O)[C@@H](CCO)OC[C@H]2C2CCCCC2)c(C(=O)O)s1 (relative stereo) , is 48

Per the record, CC(C)(C)C#Cc1cc(N2C(=O)[C@@H](CCCO)OC[C@H]2C2CCCCC2)c(C(=O)O)s1 (relative stereo) has bioavailability of 43

Measured bioavailability of C[C@@H](O)C[C@H]1OC[C@@H](C2CCCCC2)N(c2cc(C#CC(C)(C)C)sc2C(=O)O)C1=O : 77
